The reported numbers originate from the supplement of paper PMC10567573.

B1: LARP4 (parent)
chain: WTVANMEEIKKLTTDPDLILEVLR

- Variants of: B1
- Assay info: protein stability index of a GFP-peptide fusion (GPS, HEK-293T) (PSI 1-6); higher = more stable;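 also: lentivirally expressed fusions sorted by FACS into six bins by GFP to DsRed ratio, PSI derived from sequencing read proportions per bin multiplied by bin number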
- Particulars: c terminus: a fixed tail appended
protein stability index values by entry

# Sequence, protein stability index
data = [
    ("WTVANMEEIKKLTTDPDLILGVLR", 2.21),
    ("ETVANMEEIKKLTTDPDLILEVLR", 2.75),
    ("WTVANMEEIKKLTTDHDLILEVLR", 1.63),
    ("VTVANMEEIKKLTTDPDLILEVLR", 2.89),
    ("WGVANMEEIKKLTTDPDLILEVLR", 2.28),
    ("WTVANMEEIKPLTTDPDLILEVLR", 2.46),
    ("WTVANMEEIKKLFTDPDLILEVLR", 1.82),
    ("WTVQNMEEIKKLTTDPDLILEVLR", 2.61),
    ("WTVANMEEIKKLTTDPDLTLEVLR", 2.96),
    ("WTVANMEEIKYLTTDPDLILEVLR", 3.77),
    ("KTVANMEEIKKLTTDPDLILEVLR", 2.26),
]
